Documented IC50 across a set of molecules
Molecular target: recombinant human Syk (GST-hSyk fusion protein) (Homo sapiens, UniProt P43405)
Construct: purchased Carna Biosciences 08-176
Assay: Homogeneous Time-Resolved Fluorescence (HTRF) assay for the recombinant human Syk enzyme
Format: biochemical
Settings: IC50 class; 10-dose titration, 25 μM ATP; read-out: rhSYK Activity
Procedure: Syk inhibition may be determined using the following assay protocol: Homogeneous Time-Resolved Fluorescence (HTRF) Assay for the Recombinant Human Syk Enzyme: A recombinant GST-hSyk fusion protein was used to measure potency of compounds to inhibit human Syk activity. […] The resulting HTRF signal was measured after 30 minutes on an EnVision (Perkin-Elmer) reader using a time-resolved fluorescence protocol. […]

// CCOC(=O)CCc1cnn(-c2cc(C)cc(Nc3nccc(C(F)(F)F)n3)c2)c1 [Example 19.2] : IC50 value = 0.1 to 1 µM

// Cc1cc(Nc2cc(C(F)(F)F)ccn2)nc(-c2cnn(CC(C)(O)CO)c2)c1 (stereo not shown) [Example 21.4] : IC50 value = ≤ 0.1 µM

Others:
// Cc1cc(Nc2nccc(C(F)(F)F)n2)cc(-c2cnn(C3CCCC(O)C3O)c2)c1 (single isomer, unassigned) [Example 10.1] : IC50 value = ≤ 0.1 µM

// Cc1cc(Nc2nccc(C(F)(F)F)n2)cc(-c2cnn(C(C)c3ccc(C(=O)O)cc3)c2)c1 (stereo not shown) [Example 1.48] : IC50 value = ≤ 0.1 µM

---

Molecular target: recombinant human Syk (GST-hSyk fusion protein) (Homo sapiens)
Construct: purchased Carna Biosciences 08-176
Assay: Homogeneous Time-Resolved Fluorescence (HTRF) assay for the recombinant human Syk enzyme
Format: biochemical
Conditions: 10-dose titration, 25 μM ATP; read-out: rhSYK IC50
Readout name: IC50 (nM)

The observed IC50 for Cc1cc(Nc2nccc(C(F)F)n2)cc(-c2cnn(C3CCC(C)(C)C(O)C3(C)O)c2)c1 (centres unmarked) when tested with recombinant human Syk (GST-hSyk fusion protein) (Homo sapiens) stands at 5.9

The observed IC50 for Cc1cc(Nc2nccc(C)n2)cc(-c2cnn(C3CCCC(O)C3O)c2)c1 (centres unmarked) [Example 10.8] when tested with recombinant human Syk (GST-hSyk fusion protein) (Homo sapiens) stands at 7.8

The observed IC50 for Cc1cc(Nc2nccc(C(F)(F)F)n2)cc(-c2cnn(CC(C)(O)C(N)=O)c2)c1 (single isomer, unassigned) when tested with recombinant human Syk (GST-hSyk fusion protein) (Homo sapiens) stands at 1

The observed IC50 for Cc1cc(Nc2nccc(C(F)F)n2)cc(-c2cnn(C3CCCC(C)(O)C3(C)O)c2)c1 (centres unmarked) [Example 22.11] when tested with recombinant human Syk (GST-hSyk fusion protein) (Homo sapiens) stands at 2.5

a = Cc1cc(Nc2nccc(C(F)F)n2)cc(-c2cnn(C3CCCC(C)(O)C3(C)O)c2)c1 (centres unmarked) [Example 22.12]
b = Cc1cc(Nc2nccc(C(F)(F)F)n2)cc(-c2cnn(C(C)C)c2)c1
c = Cc1cc(Nc2nccc(C(F)(F)F)n2)cc(-c2cnn(C[C@H](O)C(=O)NCCO)c2)c1
d = Cc1cc(Nc2ncc(F)c(C(F)F)n2)cc(-c2cnn([C@H]3CCC[C@H](O)[C@@H]3O)c2)c1 (relative stereo)
**Query** Arrange the 4 compounds from largest to smallest IC50. Please respond by ranking the labels in the order requested.
**Result** c, b, a, d
(c: 21.1 nM, b: 10.7 nM, a: 7.4 nM, d: 4.7 nM)

---

Target: recombinant human Syk (GST-hSyk fusion protein) (Homo sapiens)
Construct: purchased Carna Biosciences 08-176
Test: Homogeneous Time-Resolved Fluorescence (HTRF) assay for the recombinant human Syk enzyme
Assay type: biochemical
Details: IC50 class; 10-dose titration, 25 μM ATP; read-out: rhSYK Activity
Readout name: IC50

The observed IC50 for `COC(=O)NCCn1cc(-c2cc(C)cc(Nc3nccc(C(F)F)n3)c2)cn1` when tested with recombinant human Syk (GST-hSyk fusion protein) (Homo sapiens) stands at ≤ 100 nM

The observed IC50 for Cc1cc(Nc2nccc(C(F)F)n2)cc(-c2cnn(C3CCCCC(O)C3O)c2)c1 (centres unmarked) when tested with recombinant human Syk (GST-hSyk fusion protein) (Homo sapiens) stands at ≤ 100 nM

The observed IC50 for `COCCNC(=O)[C@@H](O)Cn1cc(-c2cc(C)cc(Nc3nccc(C(F)(F)F)n3)c2)cn1` when tested with recombinant human Syk (GST-hSyk fusion protein) (Homo sapiens) stands at ≤ 100 nM

Others:
The observed IC50 for COc1ccnc(Nc2cc(C)cc(-c3cnn(CC4CNC(=O)O4)c3)c2)n1 (centres unmarked) [Example 2.21] when tested with recombinant human Syk (GST-hSyk fusion protein) (Homo sapiens) stands at ≤ 100 nM

The observed IC50 for `Cc1cc(Nc2nccc(C(F)(F)F)n2)cc(-c2cc(C(F)(F)F)nn2C)c1` when tested with recombinant human Syk (GST-hSyk fusion protein) (Homo sapiens) stands at 1000 to 10000 nM

The observed IC50 for `Cc1cc(Nc2cc(C(F)(F)F)ccn2)nc(-c2cc(C(F)(F)F)nn2C)n1` when tested with recombinant human Syk (GST-hSyk fusion protein) (Homo sapiens) stands at 1000 to 10000 nM

The observed IC50 for `Cc1cc(Nc2cc(C3CC3)ccn2)nc(-c2cnn(CC3(O)CCC3)c2)c1` when tested with recombinant human Syk (GST-hSyk fusion protein) (Homo sapiens) stands at ≤ 100 nM

The observed IC50 for `CCOC(=O)CCc1cnn(-c2cc(C)cc(Nc3nccc(C4CC4)n3)c2)c1` when tested with recombinant human Syk (GST-hSyk fusion protein) (Homo sapiens) stands at 100 to 1000 nM

---

Documented IC50 across a set of molecules
Target: recombinant human Syk (GST-hSyk fusion protein) (Homo sapiens, UniProt P43405)
Construct: purchased Carna Biosciences 08-176
Assay: Homogeneous Time-Resolved Fluorescence (HTRF) assay for the recombinant human Syk enzyme
Assay type: biochemical
Conditions: IC50 class; 10-dose titration, 25 μM ATP; read-out: rhSYK Activity

// worked examples, IC50 included
// `CCNC(=O)NCCn1cc(-c2cc(C)cc(Nc3nccc(C(F)F)n3)c2)cn1` : IC50 value = ≤ 100 nM

// `C[C@@](O)(CO)Cn1cc(-c2cccc(Nc3nccc(C(F)F)n3)c2)cn1` : IC50 value = ≤ 100 nM

// Cc1cc(Nc2nccc(C(F)(F)F)n2)cc(-c2cnn(CC3(O)CCCOC3)c2)c1 (centres unmarked) [Example 12.11] : IC50 value = ≤ 100 nM

// Cc1cc(Nc2nccc(C(F)(F)F)n2)cc(-c2cnn(CC3OC(=O)NC3C)c2)c1 (centres unmarked) [Example 3.119] : IC50 value = ≤ 100 nM

// Cc1cc(Nc2nccc(C(F)F)n2)cc(-c2cnn(CC3CC(=O)NC3C)c2)c1 (centres unmarked) [Example 2.76] : IC50 value = ≤ 100 nM

Could you now consider this next molecule?
// Cc1cc(-c2cnn(CC(O)CF)c2)cc(N(CC(O)CF)c2nccc(C(F)(F)F)n2)c1 (racemic) : IC50 value = 100 to 1000 nM

---

Target: recombinant human Syk (GST-hSyk fusion protein) (Homo sapiens)
Construct: purchased Carna Biosciences 08-176
Test: Homogeneous Time-Resolved Fluorescence (HTRF) assay for the recombinant human Syk enzyme
Format: biochemical
Details: IC50 class; 10-dose titration, 25 μM ATP; read-out: rhSYK Activity
Readout name: IC50

// `Cc1cc(Nc2nccc(C(F)(F)F)n2)cc(-c2ccn(C)n2)c1` : IC50 value = ≤ 100 nM

// `Cc1cc(Nc2nccc(C(F)(F)F)n2)cc(-c2c[nH]nc2C)c1` : IC50 value = 100 to 1000 nM

// Cc1cc(Nc2nccc(C(F)(F)F)n2)cc(-c2cnn(C(C)C(O)C(N)=O)c2)c1 (centres unmarked) [Example 7.6] : IC50 value = ≤ 100 nM

Others:
// `Cc1cc(Nc2nccc(C(F)F)n2)cc(-c2cnn(CCc3cn[nH]c3)c2)c1` : IC50 value = ≤ 100 nM

// Cc1cc(Nc2ncc(Cl)c(C)n2)cc(-c2cnn(CC3CNC(=O)O3)c2)c1 (centres unmarked) [Example 2.26] : IC50 value = ≤ 100 nM

// Cc1cc(Nc2nccc(C(F)F)n2)cc(-c2cnn(CC(C)(O)CC#N)c2)c1 (centres unmarked) [Example 20.7] : IC50 value = ≤ 100 nM

// `Cc1cc(Nc2nccc(C(F)(F)F)n2)cc(-c2cnn(C[C@H](O)C(=O)NCCCN3CCCC3=O)c2)c1` : IC50 value = 100 to 1000 nM

// `Cc1cc(Nc2nccc(C)n2)cc(-c2cnn(C[C@H](O)C(=O)O)c2)c1` : IC50 value = ≤ 100 nM

# credit: patent US9242984B2
